# tgt: MMP-13 (Homo sapiens, UniProt P45452)
# test_method_notes: MMP-12 inhibition test adapted to MMP-13
# Format: biochemical
# condition: test for MMP-12 adapted to MMP-13
experimental_endpoint: IC50 (µM)

>>> recorded_number("O=C(O)CC(NC(=O)c1cc(-c2ccc(OC(F)(F)F)cc2)cs1)c1ccccc1 (racemic)")
3.6
>>> recorded_number("O=C(N[C@H](C(=O)O)c1ccccc1)c1cc(-c2ccc(OC(F)(F)F)cc2)cs1")
4.5
>>> recorded_number("O=C(N[C@@H](C(=O)O)c1ccccc1)c1cc(-c2ccc(OC(F)(F)F)cc2)cs1")
5.6
>>> recorded_number("O=C(O)C[C@H](Cc1ccccc1)NC(=O)c1cc(-c2ccc(OC(F)(F)F)cc2)cs1")
8.3

P. O=C(N[C@H](C(=O)O)c1ccccc1)c1cc(-c2ccc(C3CCCCC3)cc2)cs1
Q. CC(=O)c1ccc(-c2ccc(-c3csc(C(=O)N[C@H](CC(=O)O)c4ccccc4)c3)cc2)cc1
R. O=C(N[C@H](Cc1ccccc1)C(=O)O)c1cc(-c2ccc(OC(F)(F)F)cc2)cs1
S. CC(=O)c1ccc(-c2ccc(-c3csc(C(=O)N[C@H](C(=O)O)c4ccccc4)c3)cc2)cc1
T. NC(=O)C[C@@H](NC(=O)c1cc(-c2ccc(OC(F)(F)F)cc2)cs1)c1ccccc1
query: Hey, quick one: sort these by IC50, low to high? # answer = labels listed in requested order
result: Q, S, T, R, P

----------
# tgt: MMP-12 (Homo sapiens, UniProt P39900)
# Sequence (P39900 106-470): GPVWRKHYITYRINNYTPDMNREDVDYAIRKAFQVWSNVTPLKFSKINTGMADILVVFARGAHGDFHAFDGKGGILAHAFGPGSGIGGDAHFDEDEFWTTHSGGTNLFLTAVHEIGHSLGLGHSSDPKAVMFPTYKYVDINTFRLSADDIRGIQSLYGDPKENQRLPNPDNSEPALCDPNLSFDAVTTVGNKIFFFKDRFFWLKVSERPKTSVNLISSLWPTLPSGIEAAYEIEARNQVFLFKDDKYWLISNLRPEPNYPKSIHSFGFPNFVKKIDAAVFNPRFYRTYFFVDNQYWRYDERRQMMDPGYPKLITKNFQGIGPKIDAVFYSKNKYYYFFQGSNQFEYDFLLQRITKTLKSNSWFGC
# test_method_notes: in vitro inhibitory activity on MMP-12 (proteolysis of FP-1 peptide substrate)
# Format: biochemical
# condition: FP-1 substrate 10 μM, 20 minutes at room temperature
experimental_endpoint: IC50 (µM)

>>> recorded_number("O=C(O)C[C@H](Cc1ccccc1)NC(=O)c1cc(-c2ccc(OC(F)(F)F)cc2)cs1 [Example 12]")
0.53

P. O=C(N[C@H](C(=O)O)c1ccccc1)c1cc(-c2ccc(C3CCCCC3)cc2)cs1 [Example 16]
Q. CC(=O)c1ccc(-c2ccc(-c3csc(C(=O)N[C@H](CC(=O)O)c4ccccc4)c3)cc2)cc1 [Example 20]
R. O=C(N[C@H](Cc1ccccc1)C(=O)O)c1cc(-c2ccc(OC(F)(F)F)cc2)cs1 [Example 8]
query: Hey, quick one: sort these by IC50, low to high? # answer = labels listed in requested order
result: Q, R, P
(Q: 0.028 µM, R: 0.18 µM, P: 0.54 µM)

----------
# tgt: MMP-12 (Homo sapiens)
# test_method_notes: in vitro inhibitory activity on MMP-12 (proteolysis of FP-1 peptide substrate)
# Assay type: biochemical
# condition: FP-1 substrate 10 μM, 20 minutes at room temperature
experimental_endpoint: IC50 (µM)

Worked cases, answers included:
>>> recorded_number("O=C(N[C@H](C(=O)O)c1ccccc1)c1cc(-c2ccc(OC(F)(F)F)cc2)cs1")
0.38
>>> recorded_number("CC(=O)c1ccc(-c2ccc(-c3csc(C(=O)N[C@H](C(=O)O)c4ccccc4)c3)cc2)cc1")
0.04
>>> recorded_number("O=C(O)CC(NC(=O)c1cc(-c2ccc(OC(F)(F)F)cc2)cs1)c1ccccc1 (racemic)")
0.42

A. NC(=O)C[C@@H](NC(=O)c1cc(-c2ccc(OC(F)(F)F)cc2)cs1)c1ccccc1
B. O=C(N[C@@H](C(=O)O)c1ccccc1)c1cc(-c2ccc(OC(F)(F)F)cc2)cs1
query: Would you let me know which has the greater IC50 value, A or B ? Respond using the label that marks the chosen record.
result: B
(B: 0.47 µM, A: 0.077 µM)
